System: SNB-75
EXPERIMENT NOTES: NCI tumour cell line growth inhibition, 48 h
The source made the active and inactive calls. Cut-off read from the data, not from the text of the source: active = GI50 up to about 1.1 µM and inactive = higher.
# GI50 values compiled below
MEASURED PROPERTY: GI50

[[record]]
compound = "COc1cccc(/N=N/N2CCCC2)c1"
value_measured = "> 100 µM (inactive)"

[[record]]
compound = "CC1=C/C(=N\\N(C)C)C(C(O)(C(F)(F)F)C(F)(F)F)C(C)(C)C1 (stereo not given)"
value_measured = "27.1 µM (inactive)"

[[record]]
compound = "CCOC(=O)c1c(N2CCOCC2)[nH]c(=O)c(C(c2ccc(Cl)c([N+](=O)[O-])c2)c2c(O)c(C(=O)OCC)c(N3CCOCC3)[nH]c2=O)c1O"
value_measured = "48.1 µM (inactive)"

[[record]]
compound = "CC(=O)OCC1OC(SC2=NC(=O)CS2)C(OC(C)=O)C(OC(C)=O)C1OC(C)=O (stereo not given)"
value_measured = "> 100 µM (inactive)"

[[record]]
compound = "COC(=O)C(NC(=O)CSc1nnc(COc2ccc(Cl)cc2)n1-c1ccccc1)C(C)C (stereo not given)"
value_measured = "14.6 µM (inactive)"

[[record]]
compound = "CC(=O)N1N=C(c2c(O)ccc3ccccc23)CC1C(=O)c1ccco1 (stereo not given)"
value_measured = "17.9 µM (inactive)"

[[record]]
compound = "O=C1N[C@H]2C(=O)c3c(Cl)sc(Cl)c3[C@H]2O1"
value_measured = "15.5 µM (inactive)"

[[record]]
compound = "C=C1C(=O)OC2C/C(C)=C/CC/C(C)=C/CCC3(COC(C)=O)OC3CC12 (stereo not given)"
value_measured = "11.6 µM (inactive)"

[[record]]
compound = "OC1c2ccccc2CC12Cc1ccccc1C2 (stereo not given)"
value_measured = "61.4 µM (inactive)"

[[record]]
compound = "Nc1nc(N)c2ncn(-c3ccc(Cl)c(Cl)c3)c2n1"
value_measured = "< 0.01 µM (active)"


###

Notes on GI50 obtained with HCT-15.
MEASURED PROPERTY: GI50 (µM)

[[record]]
compound = "Oc1c2cc(Br)cc1CCc1cc(Br)cc(c1O)CC2"
reading_unit = "µM"
bound_sign = "="
value_measured = 30.5

[[record]]
compound = "O=S(=O)(N/N=C/c1cccc(Cl)c1Cl)c1ccccc1"
reading_unit = "µM"
bound_sign = "="
value_measured = 98.2

[[record]]
compound = "COC(=O)C1=CS/C(=C2\\S[C@@H]3[C@H](S2)[C@H]2C=C[C@@H]3C2)S1"
reading_unit = "µM"
bound_sign = "="
value_measured = 17.3

[[record]]
compound = "CC(C)=CCc1cc(/C=C/C(=O)O)cc(CC=C(C)C)c1O [ARTEPILLIN]"
reading_unit = "µM"
bound_sign = "="
value_measured = 76

[[record]]
compound = "OC(c1cccnc1)C(F)(F)c1nc2ccccc2o1 (stereo not given)"
reading_unit = "µM"
bound_sign = ">"
value_measured = 100


###

Test system: DU-145
EXPERIMENT NOTES: NCI tumour cell line growth inhibition, 48 h
Activity calls are given as the source filed them. Cut-off read from the data, not from the text of the source: active = GI50 up to about 1.1 µM and inactive = higher.
Possible outcomes: yes (1) (active), no (0) (inactive)

[[record]]
compound = "Cc1nc2c(=O)n(C)c(=O)nc-2n(CCO)c1C"
system_tested = "DU-145"
category = "no (0)"

[[record]]
compound = "CCC1(CC)C(=O)N(C(=O)c2cc(OC)c(OC)c(OC)c2)N(C(=O)c2cc(OC)c(OC)c(OC)c2)C1=O"
system_tested = "DU-145"
category = "no (0)"

[[record]]
compound = "COCN1C(N)=C(C(=O)OC(C)(C)C)C2=CC(=O)C=CC21C (configuration not stated)"
system_tested = "DU-145"
category = "no (0)"

[[record]]
compound = "COc1cccc2c1C(=O)c1c(O)c3c(c(O)c1C2=O)C[C@@](O)(C(=O)CO)CC3OC1CC(O)C(O)C(C)O1 (some centres not stated)"
system_tested = "DU-145"
category = "yes (1)"

[[record]]
compound = "CNC(=O)OCc1nc(SSC(C)(C)C)n(C)c1COC(=O)NC"
system_tested = "DU-145"
category = "no (0)"

[[record]]
compound = "CCN1CCC(O)(c2ccc(Oc3ccccc3)cc2)C(C(=O)c2ccc(Oc3ccccc3)cc2)C1 (configuration not stated)"
system_tested = "DU-145"
category = "no (0)"

[[record]]
compound = "NCCCc1c(-c2ccccc2)[nH]c(N)nc1=O"
system_tested = "DU-145"
category = "no (0)"

[[record]]
compound = "CC(=O)N1C(Nc2cnc3ccccc3c2)CCN1c1ccccc1 (configuration not stated)"
system_tested = "DU-145"
category = "no (0)"

[[record]]
compound = "Cc1ccc(/N=N/C(=N/NC(=O)c2cc(Cl)ccc2O)c2ccc(N(CCC#N)CCC#N)cc2C)cc1"
system_tested = "DU-145"
category = "no (0)"

[[record]]
compound = "COc1ccc(CC(C)NCC(O)c2ccc(O)c(NC=O)c2)cc1 (configuration not stated)"
system_tested = "DU-145"
category = "no (0)"

[[record]]
compound = "CC(O)(C(=O)N(O)c1ccc(Cl)cc1)c1ccc(Cl)cc1 (configuration not stated)"
system_tested = "DU-145"
category = "no (0)"

[[record]]
compound = "NC(=S)N/N=C1\\CCc2ccccc2C1"
system_tested = "DU-145"
category = "no (0)"

[[record]]
compound = "c1ccc(-c2sc(-c3cccs3)cc2Cc2cccs2)cc1"
system_tested = "DU-145"
category = "no (0)"

[[record]]
compound = "CN(N=O)C(=O)NNC(=O)N(C)N=O"
system_tested = "DU-145"
category = "no (0)"

[[record]]
compound = "Cc1cnc2cc(Cl)ccc2c1SCC(=O)O"
system_tested = "DU-145"
category = "no (0)"

[[record]]
compound = "Nc1ncc(N)c(NCC2(CO)CC(CCc3ccccc3)C2)n1 (configuration not stated)"
system_tested = "DU-145"
category = "no (0)"

[[record]]
compound = "O=[N+]([O-])C(=C(N1CCOCC1)N1CCOCC1)/C(Cl)=C(\\Cl)[N+](=O)[O-]"
system_tested = "DU-145"
category = "no (0)"

[[record]]
compound = "CCc1nc2ccc(C(F)(F)F)cc2[nH]c1=O"
system_tested = "DU-145"
category = "no (0)"

[[record]]
compound = "CC(C)(C)c1cc(C2COC(c3cc(C(C)(C)C)c(O)c(C(C)(C)C)c3)CO2)cc(C(C)(C)C)c1O (configuration not stated)"
system_tested = "DU-145"
category = "no (0)"

[[record]]
compound = "CN(C)N1C(=O)c2ccccc2NC1c1ccccc1 (configuration not stated)"
system_tested = "DU-145"
category = "no (0)"

[[record]]
compound = "CN(C)CCCNC(=O)c1cc2/c(=C\\c3ccc(N(C)C)cc3)c3ccccc3n2[n+]1C"
system_tested = "DU-145"
category = "no (0)"

[[record]]
compound = "O=P(O)(O)OP(=O)(O)O"
system_tested = "DU-145"
category = "no (0)"


Each recorded value in this set is attributed to ChEMBL document CHEMBL1201862.
